Please consider the recorded IC50 for Carbonic anhydrase 2 (Homo sapiens) in what follows.
RESULT_TYPE: IC50 (µM)

• O=C(/C=C/C=C/c1ccc2c(c1)OCO2)N1CCCCC1 = 2000
• Cn1c(=O)c2c(ncn2C)n(C)c1=O = 2000

Taken from BindingDB's records for doi:10.3109/14756366.2011.578393.
